# assayed.target: Mer (Homo sapiens (Human))
# Sequence (Q12866 21-999): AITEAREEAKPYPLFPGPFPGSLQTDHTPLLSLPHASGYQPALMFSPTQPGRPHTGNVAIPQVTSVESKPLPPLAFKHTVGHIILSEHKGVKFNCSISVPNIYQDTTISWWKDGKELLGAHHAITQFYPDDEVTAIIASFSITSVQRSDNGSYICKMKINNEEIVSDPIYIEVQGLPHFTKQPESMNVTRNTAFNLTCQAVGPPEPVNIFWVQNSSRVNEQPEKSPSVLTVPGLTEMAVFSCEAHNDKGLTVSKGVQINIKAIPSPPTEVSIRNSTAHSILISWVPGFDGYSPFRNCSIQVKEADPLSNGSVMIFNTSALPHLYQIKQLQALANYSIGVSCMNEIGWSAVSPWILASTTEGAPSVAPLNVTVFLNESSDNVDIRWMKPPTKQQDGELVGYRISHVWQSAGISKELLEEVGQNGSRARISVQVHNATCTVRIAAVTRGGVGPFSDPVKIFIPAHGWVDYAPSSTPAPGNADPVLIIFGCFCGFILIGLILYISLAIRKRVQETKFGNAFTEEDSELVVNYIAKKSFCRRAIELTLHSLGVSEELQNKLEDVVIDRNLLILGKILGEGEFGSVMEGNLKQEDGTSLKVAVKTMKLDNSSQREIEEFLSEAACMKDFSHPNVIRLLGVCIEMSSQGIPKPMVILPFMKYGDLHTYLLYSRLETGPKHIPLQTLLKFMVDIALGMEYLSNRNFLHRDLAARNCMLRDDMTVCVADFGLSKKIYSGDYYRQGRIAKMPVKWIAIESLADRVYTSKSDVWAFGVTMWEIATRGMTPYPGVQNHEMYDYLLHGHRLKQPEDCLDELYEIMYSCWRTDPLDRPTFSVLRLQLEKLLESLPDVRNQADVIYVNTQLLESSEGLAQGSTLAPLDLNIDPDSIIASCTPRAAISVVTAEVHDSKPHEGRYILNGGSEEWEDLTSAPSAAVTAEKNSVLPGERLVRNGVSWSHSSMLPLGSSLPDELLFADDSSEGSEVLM
# procedure.text: Microfluidic Capillary Electrophoresis (MCE) kinase activity assay, Mer
# Format: biochemical
Each entry below carries its reported IC50.

compound="COc1cccc(Nc2ncc(C3CCN(C(=O)C4CCCC4)CC3)c(N[C@H]3CC[C@H](O)CC3)n2)c1 [Compound 1]" assayed_target="Mer (Homo sapiens (Human))" reported_value="0.1 to 1 µM"
compound="O[C@H]1CC[C@H](Nc2nc(Nc3ccnc(Cl)c3)ncc2C2CCN(CC3COC3)CC2)CC1 [Compound 28]" assayed_target="Mer (Homo sapiens (Human))" reported_value="0.01 to 0.1 µM"
compound="CN1CCN(c2cc(Nc3ncc(C4CCNCC4)c(N[C@H]4CC[C@H](O)CC4)n3)ccn2)CC1 [Compound 44]" assayed_target="Mer (Homo sapiens (Human))" reported_value="0.01 to 0.1 µM"
compound="O[C@H]1CC[C@H](Nc2nc(Nc3ccnc(C(F)(F)F)c3)ncc2C2CCN(C3CCCC3)CC2)CC1 [Compound 13]" assayed_target="Mer (Homo sapiens (Human))" reported_value="< 0.01 µM"

Read the next record carefully.
# lookup: IC50 of COc1cc(Nc2ncc(C3CCN(C4CCCC4)CC3)c(N[C@H]3CC[C@H](N(C)C)CC3)n2)ccn1 [Compound 24]
0.01 to 0.1 µM
